Consider the following compounds; for each one, report its EC50.
METHOD_NOTES: Cytotoxicity against human MPC5 cells assessed as cell viability by tryptan blue staining method
Type: cell-based
CONDITION_INFO: MPC-5
Numbers only, in µM.

Recorded results for 2 compounds are shown here.
compound="CC(O)c1cc2c(o1)C(=O)c1cccc(O)c1C2=O (centres undefined)" observed_property=EC50 quantitative_result=89.3
compound=C[C@@H](O)c1cc2c(o1)C(=O)c1cccc(O)c1C2=O observed_property=EC50 quantitative_result=65.9

Give EC50 for all compounds that follow.
1. C[C@H](O)c1cc2c(o1)C(=O)c1cccc(O)c1C2=O
2. CO[C@@]12[C@H](COC(N)=O)C3=C(C(=O)C(C)=C(N)C3=O)N1C[C@@H]1N[C@@H]12

Output:
1: 29.7; 2: 2.1

---

Consider the following molecules; for each one, report its Activity.
Tested on: Raji
METHOD_NOTES: Cell viability in Raji cells at 100 mol ratio/TPA by tryptan blue staining relative to control
Format: functional, Homo sapiens

molecule="CC(O)c1cc2c(o1)C(=O)c1cccc(O)c1C2=O (stereo not given)" target=Raji observed_property=Activity result=>80%
molecule=C[C@@H](O)c1cc2c(o1)C(=O)c1cccc(O)c1C2=O target=Raji observed_property=Activity result=>80%
molecule="CC(C)=CCC1=C(O)C(=O)c2ccccc2C1=O [LAPACHOL]" target=Raji observed_property=Activity result=>80%
molecule="CC1(C)CCC2=C(O1)c1ccccc1C(=O)C2=O [LAPACHONE]" target=Raji observed_property=Activity result=>80%

API: the following record is the query input.
Task: Using the record for `C[C@H](O)c1cc2c(o1)C(=O)c1cccc(O)c1C2=O` , state its measured Activity.
Output: >80%

---

Tested on: Human gammaherpesvirus 4
METHOD_NOTES: Inhibition of TPA-induced EBV-EA activation in Raji cells at 10 mol ratio/TPA relative to control
Assay type: functional
Consider the following compounds; for each one, report its EBV-EA positive cells %.
Give bare numbers, in %.

Recorded results for 4 compounds are shown here.
compound=C[C@@H](O)c1cc2c(o1)C(=O)c1cccc(O)c1C2=O observed_property="EBV-EA positive cells %" quantitative_result=59.4
compound="CC1(C)CCC2=C(O1)c1ccccc1C(=O)C2=O [LAPACHONE]" observed_property="EBV-EA positive cells %" quantitative_result=73.1
compound=C[C@H](O)c1cc2c(o1)C(=O)c1cccc(O)c1C2=O observed_property="EBV-EA positive cells %" quantitative_result=50
compound="CC(O)c1cc2c(o1)C(=O)c1cccc(O)c1C2=O (stereo not given)" observed_property="EBV-EA positive cells %" quantitative_result=52.9

API: the following record is the query input.
Task: Using the record for CC(C)=CCC1=C(O)C(=O)c2ccccc2C1=O [LAPACHOL] , state its measured EBV-EA positive cells %.
Output: 86.6
